The measured values listed here are drawn from patent US11618743B2.

- Tested on: Lolium perenne (LOLPE)
- Protocol Notes: Post-emergence efficacy, Method B
- Type: in vivo
- Condition Notes: 360 h, read-out: Control of weed species after post-emergence application, LOLPE (100=total damage to plant; 0=no damage to plant)
Catalogue of pest or weed control at 1000 g/ha values
Numeric only. Scale: %

compound=O=C(O)CC[n+]1ccc(-c2cccnn2)cn1 unit=% reading=100

Okay, next one:
Prompt: Value wanted: pest or weed control at 1000 g/ha (Lolium perenne (LOLPE)) of entry `O=S(=O)([O-])CC[n+]1ccc(-c2cccnn2)cn1`
Response: 90

###

- Test system: Echinochloa crus-galli (ECHCG)
- Protocol Notes: Post-emergence efficacy, Method A
- Format: in vivo
- Condition Notes: Application rate 500 g/Ha; evaluated after 13 days; 100=total damage to plant, 0=no damage
Entries and their measured Control of weed species after post-emergence application, ECHCG follow.
Lab note: record the figure alone, no unit after it.

compound="N#Cc1ccc(-c2cc[n+](CCC(=O)O)nc2)nc1.O=C([O-])C(F)(F)F [Compound A176]" assayed_system="Echinochloa crus-galli (ECHCG)" reading=30

Prompt: For the compound shown here, O=C([O-])C(F)(F)F.OCC[n+]1ccc(-c2ncccn2)cn1 [Compound A195] , give the reported Control of weed species after post-emergence application, ECHCG.
Response: 10

Prompt: I have this compound here, COC(=O)CC[n+]1ccc(-c2ccncc2)cn1.O=C([O-])C(F)(F)F [Compound A203] , and I need its recorded Control of weed species after post-emergence application, ECHCG.
Response: 50

Prompt: Sample CC(C(=O)OC(C)(C)C)[n+]1ccc(-c2ncccn2)cn1.O=C([O-])C(F)(F)F (stereo not shown) [Compound A193] — what was its Control of weed species after post-emergence application, ECHCG?
Response: 10

###

Quick list: Control of weed species after post-emergence application, ECHCG per entry.
- Tested on: Echinochloa crus-galli (ECHCG)
- Protocol Notes: Post-emergence efficacy, Method A
- Type: in vivo
- Condition Notes: Application rate 500 g/Ha; evaluated after 13 days; 100=total damage to plant, 0=no damage
Would you mind answering with just the numeric figure?

molecule="CC(C[n+]1ccc(-c2ccncn2)cn1)C(=O)O.O=C([O-])C(F)(F)F (centres unmarked) [Compound A171]" reading=60
molecule="CC(C)(CC(=O)O)[n+]1ccc(-c2ccncn2)cn1.O=C([O-])C(F)(F)F [Compound A189]" reading=80
molecule="O=P([O-])(O)C[n+]1ccc(-c2ccncn2)cn1 [Compound A236]" reading=50
molecule="O=C(O)CC[n+]1ccc(-c2ncc(C(F)(F)F)cc2Cl)cn1.O=C([O-])C(F)(F)F [Compound A197]" reading=0
molecule="O=C(O)CC[n+]1ccc(-c2ccncc2F)cn1.O=C([O-])C(F)(F)F [Compound A157]" reading=80

Prompt: Record COP(=O)(C[n+]1ccc(-c2ncccn2)cn1)OC.O=S(=O)([O-])C(F)(F)F [Compound A238] : what is its Control of weed species after post-emergence application, ECHCG with Echinochloa crus-galli (ECHCG)?
Response: 40

Prompt: // fetch Echinochloa crus-galli (ECHCG) Control of weed species after post-emergence application, ECHCG for CCOP(=O)(C[n+]1ccc(-c2ncccn2)cn1)OCC.O=C([O-])C(F)(F)F [Compound A230]
Response: 60

Prompt: Recorded Control of weed species after post-emergence application, ECHCG for COC(=O)c1ccc(C[n+]2ccc(-c3ncccn3)cn2)cc1.O=C([O-])C(F)(F)F [Compound A229] with Echinochloa crus-galli (ECHCG), please?
Response: 0
